Cited source: PubChem BioAssay

- targetEntity: Epidermal growth factor receptor (Homo sapiens)
- methodSummary: EGFR binders on small-molecule microarrays, primary screen, biochemical, small-molecule microarray, 635 nm fluorescence (AID 1104);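 further: score merges 667 nm emission intensity with spot signal to noise over triplicate slides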
- setupConditions: EGFR binding, higher = more signal
Quick list: composite z-score per entry.
Answer with a number only.

Recorded results for 3 molecules are shown here.
COCCCNC(=O)[C@@]1(C)c2ccccc2C(=O)N(C(C)C)[C@H]1c1ccc(CO)cc1    0.517
CC1CC/C=C\[C@H]2OC34C=CCN(Cc5ccccc5)C(=O)[C@H]3N(CCCO)C(=O)[C@@H]4C2C(=O)O1 (some centres undefined)    -0.574
COC(=O)C(CC#Cc1ccc2c(c1)[C@]1(C(=O)N2)[C@H](C(=O)Nc2nc3ccccc3s2)[C@H]2C(=O)O[C@H](c3ccccc3)[C@H](c3ccccc3)N2[C@@H]1c1ccccc1OCCO)C(=O)OC    0.282

Next molecule, composite z-score to be filled in.
Ask: For Epidermal growth factor receptor (Homo sapiens), provide composite z-score of `COc1cc2c(cc1OC)CN(C(=O)[C@@H]1[C@H]3C(=O)O[C@H](c4ccccc4)[C@H](c4ccccc4)N3[C@H](c3ccccc3OCCO)[C@@]13C(=O)Nc1ccc(C#CCCO)cc13)CC2` please.
Reply: 0.179

====

- System: Chordin-like protein 2 (CHRDL2)
- methodSummary: CHRDL2 small-molecule binders, primary screen, biochemical, small-molecule microarray, 635 nm fluorescence (AID 1126);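 further: printed compound slides probed with Chrdl2 protein at 4 µg/mL for 1 h at 4 C; score merges 667 nm emission intensity with signal to noise over three replicate slides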
- setupConditions: small-molecule microarray binding, fluorescence 635 nm; higher = more signal
Would you please tag the item yes (1) when its composite z-score is -0.04 or above, and no (0) when it is below?

Completed entries (count: 5):
C=CCC(OC(C)=O)[C@@H]1[C@@H](N(Cc2cccc3ccccc23)C(=O)c2ccc(-c3ccccc3)cc2)c2cc(OCCCO)ccc2N1C(=O)c1ccc2ccccc2c1 (stereo partly specified)    yes (1)
COc1ccc(C#Cc2ccc3c(c2)[C@]2(C(=O)N3)[C@H](C(=O)NC[C@H](O)c3ccccc3)[C@H]3C(=O)O[C@H](c4ccccc4)[C@H](c4ccccc4)N3[C@@H]2c2ccc(O)cc2)cc1    yes (1)
CCOC(=O)C[C@H]1[C@H](OC(=O)c2ccccc2-c2ccccc2)[C@@H](NC(=O)CC(C)C)c2cc(OCCCO)ccc2N1C(=O)Cc1ccc(OC)cc1    yes (1)
[N-]=[N+]=NCc1ccccc1C[C@]1(C(N)=O)COC(c2ccc(OCCCO)cc2)=N1    no (0)
CC(C)[Si](C#Cc1ccc(Oc2ccccc2)cc1)(O[Si](C#Cc1ccc(Oc2ccccc2)cc1)(C(C)C)C(C)C)C(C)C    yes (1)

Read the next record carefully.
Ask: Identify whether the reported composite z-score of the following compound is -0.04 or greater: `COc1cc2c(cc1OC)CN(C(=O)[C@H]1[C@@H]3C(=O)O[C@@H](c4ccccc4)[C@@H](c4ccccc4)N3[C@@H](c3ccc(O)cc3)[C@]13C(=O)Nc1ccc(C#CCCO)cc13)CC2`
Reply: yes (1)

====

Below, each of the compounds is paired with its reported z-score value.
- methodSummary: P. aeruginosa biofilm formation inhibitors, primary screen, strain PAO1, LB-PBS medium, absorbance 600 nm (AID 1176); further: test concentration not given here
- setupConditions: P. aeruginosa PAO1 growth/biofilm, A600, 12 h; higher = more signal
// no unit, no text: just the number

// worked examples, z-score included
COc1cccc(-c2cccc(=O)o2)c1    0.381
C=CCOC(=O)[C@H]1[C@@H]2C(=O)O[C@@H](c3ccccc3)[C@@H](c3ccccc3)N2[C@@H](c2ccc(OCCOC(=O)[C@H]3C[C@H]4C(=O)N[C@@H](CCCCNC(C)=O)C(=O)N4[C@H]3c3ccc(O)cc3)cc2)[C@]12C(=O)Nc1ccc(I)cc12    1.14

For the next question, use this compound.
Ask: Find the recorded z-score belonging to COc1cc2c(cc1O)C(C1CC1)N(Cc1sc3ccccc3c1Cl)CC2 (stereo unspecified) and report it.
Reply: -1.33
